- RUN DESCRIPTION: Cytotoxicity against human HepG2 cells by MTT assay
- Format: cell-based
- MEASUREMENT SETUP: HepG2 cells, read-out: TC50 (the source's name)
Would you mind telling me the reported CC50 of each entry?

These solved cases illustrate the format of a correct answer.
> print(dat)
                               smiles.input  measured
1  Fc1cccc(COc2ccc(Nc3ncnc4ccc(-c5ccc(N6CCOCC6)cc5)cc34)cc2Cl)c1    9.6 µM
2  Fc1cccc(COc2ccc(Nc3ncnc4ccc(-c5ccccc5)cc34)cc2Cl)c1    4.9 µM
3  CS(=O)(=O)CCNCc1ccc(-c2ccc3ncnc(Nc4ccc(OCc5cccc(F)c5)c(Cl)c4)c3c2)o1   > 35 µM
4  Fc1cccc(COc2ccc(Nc3ncnc4ccc(-c5ccc(CN6CCOCC6)cc5)cc34)cc2Cl)c1   12.9 µM

Switching to the query record.
Quick one: give measured CC50 for Fc1cccc(COc2ccc(Nc3ncnc4sc(-c5ccccc5)cc34)cc2Cl)c1
10 µM

---

Provide the recorded Ratio EC50 for the entries that follow.
- RUN DESCRIPTION: Selectivity ratio, ratio of EC50 for Plasmodium falciparum W2 to EC50 for Plasmodium falciparum D6
- Assay type: functional

In the examples that follow, each entry is paired with its recorded Ratio EC50.
> print(dat)
                               smiles.input  measured
1  Cc1cc(-c2ccc3ncnc(Nc4ccc(OCc5cccc(F)c5)c(Cl)c4)c3c2)cnc1N1CCOCC1       < 3
2  Fc1cccc(COc2ccc(Nc3ncnc4sc(-c5ccc(CN6CCOCC6)cc5)cc34)cc2Cl)c1       < 3
3  Cc1cc(-c2cc3c(Nc4ccc(OCc5cccc(F)c5)c(Cl)c4)ncnc3s2)cnc1N1CCOCC1       < 3

Respond only with Ratio EC50 recorded for CS(=O)(=O)c1cccc(-c2cc3c(Nc4ccc(OCc5cccc(F)c5)c(Cl)c4)ncnc3s2)c1
< 3

---

- System: Trypanosoma cruzi
- RUN DESCRIPTION: Antiparasitic activity against Trypanosoma cruzi at 10 uM
- Type: functional
Please respond with reported inhibition at 10 µM for every item in the list.
Numbers only, in %.

Consider the following illustrative entries.
> print(dat)
                               smiles.input               metric  unit.abbreviation  measured
1  Fc1cccc(COc2ccc(Nc3ncnc4sc(-c5ccccc5Oc5ccccc5)cc34)cc2Cl)c1  inhibition at 10 µM                  %        45
2  Fc1cccc(COc2ccc(Nc3ncnc4sc(-c5cc6ccccc6s5)cc34)cc2Cl)c1  inhibition at 10 µM                  %        49
3  Cc1cc(-c2ccc3ncnc(Nc4ccc(OCc5cccc(F)c5)c(Cl)c4)c3c2)cnc1N1CCOCC1  inhibition at 10 µM                  %        49

For every listed record, write down its inhibition at 10 µM.
1. Fc1cccc(COc2ccc(Nc3ncnc4sc(-c5ccccc5)cc34)cc2Cl)c1
2. Fc1cccc(COc2ccc(Nc3ncnc4cc(-c5ccc(N6CCOCC6)cc5)sc34)cc2Cl)c1

[42, 0]

---

Field: EC50. Provide a value for each of the compounds that follow.
- System: Trypanosoma cruzi
- RUN DESCRIPTION: Antiparasitic activity against Trypanosoma cruzi
- Assay type: functional, organism-based

> print(dat)
                               smiles.input  metric  measured
1  Fc1cccc(COc2ccc(Nc3ncnc4cc(-c5ccc(CN6CCOCC6)cc5)sc34)cc2Cl)c1    EC50   > 50 µM
2  Oc1ccc(-c2ccc3ncnc(Nc4ccc(OCc5cccc(F)c5)c(Cl)c4)c3c2)cc1    EC50   > 50 µM

Turning now to a further compound:
Please report EC50 for the following compound: CC(C)(C)NS(=O)(=O)c1ccccc1-c1cc2c(Nc3ccc(OCc4cccc(F)c4)c(Cl)c3)ncnc2s1
> 50 µM

Origin of values: ChEMBL document CHEMBL3734677
